test system: colorectal cancer cell line HCT-116; experiment: In vitro anticancer activity MTT assay, HCT116; assay type: cell-based, human; settings: 48 h, HCT116 cells
Property label: IC50 (µM)
Express the result in µM but write the number alone.

Here's what some known entries look like.
COc1cccc(-c2cc(COC(=O)[c-]3cccc3)on2)c1.COc1cccc(-c2cc(COC(=O)[c-]3cccc3)on2)c1.[Fe+2] [YJP-8] : 236
O=C(OCc1cc(-c2ccccc2Cl)no1)[c-]1cccc1.O=C(OCc1cc(-c2ccccc2Cl)no1)[c-]1cccc1.[Fe+2] [YJP-14] : 228
O=C(OCc1cc(-c2ccc(Cl)cc2Cl)no1)[c-]1cccc1.O=C(OCc1cc(-c2ccc(Cl)cc2Cl)no1)[c-]1cccc1.[Fe+2] [YJP-15] : 234
O=C(OCc1cc(-c2ccc(Br)cc2)no1)[c-]1cccc1.O=C(OCc1cc(-c2ccc(Br)cc2)no1)[c-]1cccc1.[Fe+2] [YJP-16] : 63.9
O=C(OCc1cc(-c2ccc(Cl)cc2)no1)[c-]1cccc1.O=C(OCc1cc(-c2ccc(Cl)cc2)no1)[c-]1cccc1.[Fe+2] [YJP-13] : 486

Now, please, on to the next compound.
Data request: Let me know recorded IC50 for O=C(OCc1cc(-c2ccc([N+](=O)[O-])cc2)no1)[c-]1cccc1.O=C(OCc1cc(-c2ccc([N+](=O)[O-])cc2)no1)[c-]1cccc1.[Fe+2] [YJP-19] , thanks.
Data returned: 157

* * *

tested on: breast cancer cell line MCF-7; experiment: In vitro anticancer activity MTT assay, MCF-7; format: cell-based, human; details: 48 h, MCF-7 cells
Recorded IC50, one value per entry.
Give just the numeric value; µM need not be written.

Data request: Please report IC50 for the following compound: O=C(OCc1cc(-c2ccc([N+](=O)[O-])cc2)no1)[c-]1cccc1.O=C(OCc1cc(-c2ccc([N+](=O)[O-])cc2)no1)[c-]1cccc1.[Fe+2] [YJP-19]
Data returned: 178

Data request: Entry CCc1ccc(-c2cc(COC(=O)[c-]3cccc3)on2)cc1.CCc1ccc(-c2cc(COC(=O)[c-]3cccc3)on2)cc1.[Fe+2] [YJP-3] needs its IC50 filled in; supply it.
Data returned: 86.8

Data request: Please indicate IC50 recorded for O=C(OCc1cc(-c2ccc(F)cc2)no1)[c-]1cccc1.O=C(OCc1cc(-c2ccc(F)cc2)no1)[c-]1cccc1.[Fe+2] [YJP-11]
Data returned: 138

Data request: Annotate the compound O=C(OCc1cc(-c2ccc(Cl)cc2Cl)no1)[c-]1cccc1.O=C(OCc1cc(-c2ccc(Cl)cc2Cl)no1)[c-]1cccc1.[Fe+2] [YJP-15] with its measured IC50.
Data returned: 190

Data request: Read the entry O=C(OCc1cc(-c2ccc(C(F)(F)F)cc2)no1)[c-]1cccc1.O=C(OCc1cc(-c2ccc(C(F)(F)F)cc2)no1)[c-]1cccc1.[Fe+2] [YJP-9] and write its reported IC50.
Data returned: 133

Data request: Report IC50, nothing else, for this compound: Cc1ccc(-c2cc(COC(=O)[c-]3cccc3)on2)cc1.Cc1ccc(-c2cc(COC(=O)[c-]3cccc3)on2)cc1.[Fe+2] [YJP-2]
Data returned: 136

Data request: Provide IC50 value for the following compound: O=C(OCc1cc(-c2ccccc2Cl)no1)[c-]1cccc1.O=C(OCc1cc(-c2ccccc2Cl)no1)[c-]1cccc1.[Fe+2] [YJP-14]
Data returned: 172

Data request: Identify IC50 associated with the compound O=C(OCc1cc(-c2ccc(Cl)cc2)no1)[c-]1cccc1.O=C(OCc1cc(-c2ccc(Cl)cc2)no1)[c-]1cccc1.[Fe+2] [YJP-13]
Data returned: 169

Data request: Supply measured IC50 of O=C(OCc1cc(-c2ccc(Br)cc2)no1)[c-]1cccc1.O=C(OCc1cc(-c2ccc(Br)cc2)no1)[c-]1cccc1.[Fe+2] [YJP-16] in your reply.
Data returned: 156

Data request: Determine its reported IC50: COc1ccc(-c2cc(COC(=O)[c-]3cccc3)on2)cc1.COc1ccc(-c2cc(COC(=O)[c-]3cccc3)on2)cc1.[Fe+2] [YJP-6]
Data returned: 182

Data request: Tell us which IC50 value is on record for CC(C)(C)c1ccc(-c2cc(COC(=O)[c-]3cccc3)on2)cc1.CC(C)(C)c1ccc(-c2cc(COC(=O)[c-]3cccc3)on2)cc1.[Fe+2] [YJP-4]
Data returned: 150

Data request: Quote IC50 reported for COc1cccc(-c2cc(COC(=O)[c-]3cccc3)on2)c1.COc1cccc(-c2cc(COC(=O)[c-]3cccc3)on2)c1.[Fe+2] [YJP-8] please.
Data returned: 138

Data request: Please report IC50 for the following compound: COc1ccccc1-c1cc(COC(=O)[c-]2cccc2)on1.COc1ccccc1-c1cc(COC(=O)[c-]2cccc2)on1.[Fe+2] [YJP-7]
Data returned: 157

* * *

Reported values of IC50 for individual entries
tested on: breast cancer cell line MCF-7; assay: In vitro anticancer activity MTT assay, MCF-7; type: cell-based, human; conditions: 48 h, MCF-7 cells
API: value field is a number in µM; no unit string.

Consider the reported IC50 for these molecules:
O=C(OCc1cc(-c2ccccc2)no1)[c-]1cccc1.O=C(OCc1cc(-c2ccccc2)no1)[c-]1cccc1.[Fe+2] : 990
O=C(OCc1cc(-c2ccccc2F)no1)[c-]1cccc1.O=C(OCc1cc(-c2ccccc2F)no1)[c-]1cccc1.[Fe+2] : 159

Attention now shifts to the item below.
Data request: Report IC50, nothing else, for this molecule: `Cc1cc(C)c(-c2cc(COC(=O)[c-]3cccc3)on2)c(C)c1.Cc1cc(C)c(-c2cc(COC(=O)[c-]3cccc3)on2)c(C)c1.[Fe+2]`
Data returned: 142

* * *

system: colorectal cancer cell line HCT-116; assay: In vitro anticancer activity MTT assay, HCT116; assay type: cell-based, human; details: 48 h, HCT116 cells
Property label: IC50 (µM)
A number alone suffices; assume µM.

Data request: Quote colorectal cancer cell line HCT-116 IC50 for entry Cc1ccc(-c2cc(COC(=O)[c-]3cccc3)on2)cc1.Cc1ccc(-c2cc(COC(=O)[c-]3cccc3)on2)cc1.[Fe+2] [YJP-2] .
Data returned: 220

Data request: Param request: IC50 | system colorectal cancer cell line HCT-116 | item CC(C)(C)c1ccc(-c2cc(COC(=O)[c-]3cccc3)on2)cc1.CC(C)(C)c1ccc(-c2cc(COC(=O)[c-]3cccc3)on2)cc1.[Fe+2] [YJP-4]
Data returned: 2180

Data request: Give IC50 for O=C(OCc1cc(-c2ccccc2F)no1)[c-]1cccc1.O=C(OCc1cc(-c2ccccc2F)no1)[c-]1cccc1.[Fe+2] [YJP-12] tested on colorectal cancer cell line HCT-116.
Data returned: 149
